Every entry's value here was drawn from paper PMC5875417.

Experimental System: human dopamine transporter (hDAT) (Homo sapiens, UniProt Q01959)
Sequence (Q01959 whole entry): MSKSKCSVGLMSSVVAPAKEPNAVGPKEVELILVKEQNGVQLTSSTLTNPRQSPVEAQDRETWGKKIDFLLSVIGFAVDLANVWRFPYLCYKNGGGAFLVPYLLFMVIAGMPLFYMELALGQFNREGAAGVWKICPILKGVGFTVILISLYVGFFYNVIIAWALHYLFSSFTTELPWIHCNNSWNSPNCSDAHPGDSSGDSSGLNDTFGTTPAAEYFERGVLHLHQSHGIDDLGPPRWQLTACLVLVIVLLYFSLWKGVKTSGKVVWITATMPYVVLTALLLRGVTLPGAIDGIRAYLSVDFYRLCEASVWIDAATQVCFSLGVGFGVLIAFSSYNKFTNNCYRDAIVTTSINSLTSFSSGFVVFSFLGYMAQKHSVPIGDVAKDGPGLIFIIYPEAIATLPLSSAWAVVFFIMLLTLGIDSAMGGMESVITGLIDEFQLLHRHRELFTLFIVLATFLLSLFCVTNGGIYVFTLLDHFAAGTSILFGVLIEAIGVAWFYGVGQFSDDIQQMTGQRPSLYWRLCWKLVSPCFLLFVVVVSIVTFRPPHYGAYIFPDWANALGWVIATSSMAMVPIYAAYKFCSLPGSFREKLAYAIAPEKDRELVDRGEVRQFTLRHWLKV
Experiment Summary: cell-based
Format: cell-based
Experimental Parameters: ability to generate a persistent current at 10 μM and −60 mV
Reported Endpoint: Persistent Current

# example entries with known answers
NCCc1cccc(O)c1 [4-des-OH DA (4), 2-(3-Hydroxyphenyl)-1-aminoethane]
No
Br.C[C@H](N)Cc1ccc(O)c(O)c1 [S(+) α-Me DA (S7)]
No
NCCc1ccccc1 [β-PEA (5), 2-phenyl-1-aminoethane, reference compound]
Yes
C[C@@H](N)Cc1ccc(O)cc1.Cl [R(−) α-Me 3-des-OH DA (R6)]
No
C[C@H](N)Cc1ccc(O)cc1.Cl [S(+) α-Me 3-des-OH DA (S6)]
No

Field: next molecule
**Query** Entry under review: Br.C[C@@H](N)Cc1ccc(O)c(O)c1 [R(−) α-Me DA (R7)] . Reported Persistent Current?
**Result** No
